experiment: parental Ba/F3 cell viability inhibition, counter-screen for JAK2V617F inhibitor project, murine pro-B, CellTiter-Glo luminescence (AID 1486); conditions: CellTiter-Glo ATP luminescence, at 5.6 µM
In all, about 220,000 compounds went through this assay and about 2,400 (1.1%) were called active.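 The calls were made as follows: active = inhibition above a per-campaign cutoff, the mean inhibition of all tested compounds plus 3 SD (cut at about 27% in these data); inactive = the rest.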 Only a selection was taken, and actives are over-represented in it overall.
Pick from true = active, false = inactive when you respond.

Past entries and their recorded results:
[[record]]
compound = "CC(C)CC(=O)N1CCC(O)(CS(=O)(=O)Cc2ccccc2)CC1"
class_name = "true"

[[record]]
compound = "Cc1csc(NC(=O)c2ccc(-c3ccc(Cl)cc3Cl)o2)n1"
class_name = "false"

[[record]]
compound = "COCCCNC(=O)/C=C/c1ccc(OCc2c(F)cccc2Cl)cc1"
class_name = "false"

[[record]]
compound = "CCN(CC)c1ccc(NC(=O)c2ccc(Cl)nc2)cc1"
class_name = "true"

[[record]]
compound = "C=CCNC(=S)N1CCc2[nH]c3ccccc3c2C1"
class_name = "false"


Prompt: Could you please tell me the result logged for Cc1ccc(OC(=O)c2c(C)nn(-c3ccccc3)c2C)cc1 in this assay?
Response: false

Prompt: Which result was noted for this compound in the test: CCN1/C(=C/C(=S)Nc2ccccc2)Sc2ccccc21
Response: false
